- protocol summary: antimalarial activity against Dd2 strain (AID 2302);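 note: 0% = DMSO untreated growth and 100% = chloroquine plus artemisinin killed control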
- cond: P. falciparum Dd2 in RBCs, LDH growth readout, 72 h; at 2 µM; hits give high values
Residues, ends and D or L forms follow the SMILES beside them. *: point of attachment. Octanoyl = CCCCCCCC(=O)*
quantity kind: growth inhibition (%)
Give the value, in units of %, as a plain number.

Req: Quick one: growth inhibition of `CC(C)CNCc1cccc(-c2ccc(CNc3ccc(C(=O)c4ccccc4)cc3)cc2)c1` ?
Resp: 0

Req: Further, for CCCCCCCC(=O)N[C@@H](Cc1ccccc1)C(=O)N[C@H](C(=O)O)C(C)C (Octanoyl-Phe-Val-OH) ?
Resp: -7

Req: Further, for `O=C(NC1CC1)c1cnc(N2CCC(OCc3ccccc3)CC2)c(Cl)c1` ?
Resp: 71

Req: Further, for CCOc1ccc2c(c1)C(C)(c1ccc3c(c1)C(C)CC(C)(C)N3)CC(C)(C)N2 (stereo not given) ?
Resp: 3

Req: Further, for `CCn1c(-c2nonc2N)nc2cnc(Oc3cccc(NC(=O)c4ccc(OCCN(C(C)C)C(C)C)cc4)c3)cc21` ?
Resp: 10

Req: Further, for `COc1ccc2nccc([C@@H](O)CN3CCC(NCc4cc5ccc(C#N)cc5[nH]4)CC3)c2c1` ?
Resp: 39

Req: Further, for `COc1ccc(CNCc2ccc(-c3cccc(-c4nc5ccc(C(F)(F)F)cc5[nH]4)c3)cc2)cc1` ?
Resp: 100

Req: Further, for `C=Cc1cc(NC(=O)N2CCc3cc(OC)c(C(F)(F)F)cc32)cc(-c2cccnc2)c1` ?
Resp: 20

Req: Further, for `CCC[C@@H]1CCN[C@H]([C@H](O)c2ccnc3ccc(OC)cc23)C1` ?
Resp: 69

Req: Further, for `O=c1[nH]c(NCCCNCc2cc3c(Cl)cc(Cl)cc3[nH]2)nc2ccsc12` ?
Resp: 11

Req: Further, for CCC(C)Oc1ccc(CCCON2C(N)=NC(N)=NC2(C)C)cc1 (stereo not given) ?
Resp: 95

Req: Further, for `COc1ccc(-c2cccc(NC(=O)c3cccc(Cl)c3)c2)cc1CN1CCCN(C)CC1` ?
Resp: 99

Req: Further, for `Cc1onc(-c2ccc(Cl)cc2)c1-c1ccnn1S(=O)(=O)c1ccc(Cl)cc1` ?
Resp: 99

Req: Further, for O=C(/C=C/c1ccc(F)cc1)NC1CCC(CCN2CCc3ccc(-n4cccn4)cc3CC2)CC1 (stereo not given) ?
Resp: 16

Req: Further, for `NC(=O)c1cc2nc(Nc3ccc(F)cc3)nc(NC3CCC3)c2[nH]1` ?
Resp: 102

Req: Further, for `COc1cccc(CNC(=O)c2ccnc(-c3cccc(CN(C)C4CCN(C)CC4)c3)c2)c1` ?
Resp: 46

Req: Further, for `CCOC(=O)NC1=NC(C)(C)N(OCCCOc2cc(Cl)c(Cl)cc2Cl)C(N)=N1` ?
Resp: 94

Req: Further, for `Cc1cc(C(=O)NCc2ccc(-c3c(C)noc3C)cc2)n(-c2ccccc2)n1` ?
Resp: 90

Req: Further, for `CCN(CC)CC#Cc1ccc2[nH]c(C)c(Cl)c(=O)c2c1` ?
Resp: 95

Req: Further, for `Cc1ccc(NC(=O)c2ccc(N3CCC(c4ccccc4C)CC3)nc2)cc1` ?
Resp: 72

Req: Further, for `Cc1nccn1Cc1cc(C(C)(C)C)c(O)c(C(C)(C)C)c1` ?
Resp: -4

Req: Further, for `CN(C)CCCNc1ncnc2c1[nH]c1ccc(Cl)cc12` ?
Resp: 3

Req: Further, for `O=C(Nc1ccc([N+](=O)[O-])cc1)Nc1cc(C(F)(F)F)ccc1F` ?
Resp: 46

Req: Further, for `Cc1cc(NCCC(=O)Nc2ccccc2)nc(NCCc2ccccc2)n1` ?
Resp: 8

Req: Further, for `CN(C)c1ccc(C=C2SC(=Nc3ccccc3)N(c3ccccc3)C2=O)cc1[N+](=O)[O-]` ?
Resp: 82

Req: Further, for `COc1cc2c(Nc3cccc(NC(=O)c4ccccc4)c3)ncnc2cc1OCCCN1CCOCC1` ?
Resp: 100

Req: Further, for `CCCCCCCc1c2c(C)c(C(=O)OCC)nc-2cc2n1CC(C)=C2C` ?
Resp: 10

Req: Further, for `CCOc1cccc2nc(NCCCNCc3ccc(Cl)c(Cl)c3)cc(NCCCNCc3ccc(Cl)c(Cl)c3)c12` ?
Resp: 58

Req: Further, for `O=C1OC2(CN1CC1CCN(Cc3ccc(O)c(Cl)c3)CC1)c1ccccc1-c1ccccc12` ?
Resp: 96

Req: Further, for `Cc1ccc(NC(=O)c2ccc3ncccc3c2)cc1OC1CCN(Cc2ccc(F)cc2)CC1` ?
Resp: 22

Req: Further, for `CC(C)NCc1ccc(-c2cccc(-c3nc4ccccc4[nH]3)c2)cc1` ?
Resp: 34

Req: Further, for `CCOC(=O)c1cc2c(CCN3C(=O)c4ccccc4C3=O)cn(C)c2cc1-c1ccncc1` ?
Resp: 90

Req: Further, for COc1ccc(C2CCN(CCCCNC(=O)c3ccc(NC(=O)c4ccc(Cl)cc4)cc3)C2)c(OC)c1 (stereo not given) ?
Resp: -1

Req: Further, for `COc1cccc2c(NN=Cc3ccccc3F)ccnc12` ?
Resp: 37

Req: Further, for `O=S(=O)(c1cccc(Br)c1)N1CCCCC(c2ccc(C(F)(F)F)cc2)=N1` ?
Resp: 92

Req: Further, for CCC(C)C#Cc1c(C)nc(N)nc1N (stereo not given) ?
Resp: -4

Req: Further, for `Cc1[nH]cc(Br)c(=O)c1-c1ccc(Oc2ccccc2)cc1` ?
Resp: 96

Req: Further, for CCOc1cc2c(cc1OCC)C(c1cc(OC)c(O)cc1Cl)NCC2 (stereo not given) ?
Resp: 97

Req: Further, for `CCCCOc1cc2c(cc1OCC)C(C=Cc1ccc(Cl)cc1Cl)=NCC2` ?
Resp: 95

Req: Further, for `O=C(N[C@H]1CCN(Cc2ccc(OC3CCN(Cc4ccccc4)CC3)c(Br)c2)C1)c1ccc(Cl)c(Cl)c1` ?
Resp: 30
